Ref: patent US20210253725A1

system: T1, CD27 expressed on the cell surface (HT1080_CD27 cells) (human, UniProt P26842 20-260); also: test concentration or dose not given here
T1 sequence (looked up): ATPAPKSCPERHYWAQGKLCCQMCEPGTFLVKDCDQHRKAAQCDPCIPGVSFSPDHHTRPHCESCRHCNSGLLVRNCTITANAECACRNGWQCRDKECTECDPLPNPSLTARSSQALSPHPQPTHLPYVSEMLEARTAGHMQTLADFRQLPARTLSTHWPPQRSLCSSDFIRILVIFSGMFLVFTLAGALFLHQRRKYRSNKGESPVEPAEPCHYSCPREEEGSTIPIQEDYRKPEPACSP
procedureText: cell-based or functional assay
Would you mind labelling by IL-8 [abs. corr.]? At or over 0.4 abs. corr. is Y, under is N.

INSERT INTO assay_data (binder, assignedcategory) VALUES
  ('P018.S.01.A.C04 (antibody, V domains shown, V regions on human Ig constant parts; also called AB27_8) VH: QSLEESGGGLVTPGGTLTLTCTASGSDISTYHMGWFRQAPGKGLEYIGFINTGGTTWYASWAKGRFTVSRTSTTVDLLMTSPTTEDTATYFCARYDAGHAFFDLWGPGTLVTVSS VL: AVVMTQTASPVSAAVGGTVTIKCQASQSIGSSYFSWYQQKPGQPPKLLIYSASTLASGVSSRFKGSGSGTEYTLTISDLESADAATYYCQGYDGDTTTAFFAFGGGTEVVVE', 'N'),
  ('P018.S.09.A.E05 (antibody, V domains shown, V regions on human Ig constant parts; also called AB27_155) VH: QSLEESGGRLVTPGTPLTLTCTVSGIDLSRYDMSWVRQAPGKGLEWIGFIGASGSTYYASWVKGRFTISKTSTTVDLKITSPTTEDTATYFCAREETDSRGYYYSLWGPGTPVTVSS VL: ALVMTQTPASVEAAVGGTVTINCQASQSISDLLGWYQQKPGQPPKLLIYDASDLASGVPSRFSGSGSGTEFTLTISGVQSDDAATYYCQQGYSINNVDNAFGGGTEVVVK', 'Y'),
  ('P018.S.06.A.C06 (antibody, V domains shown, V regions on human Ig constant parts; also called AB27_102) VH: QQQLEESGGGLVKPGGTLTLPCKASGFTISSDYDMCWVRQAPGKGLEWITCILGGSGGSTWYANWAKGRFTISQSSSTTVTLQMTSLTDADTATYFCTRASGFTYFELWGPGTLVTVSS VL: AQVLTQTPSSVSAAVGGTVTINCQASQSVYNNKNLAWYQQKPGQPPKLLIYYASTLASGVSSRFKGSGSGTQFTLTISDVQSDDAATYYCQGEFSCSSSDCFAFGGGTEVVVK', 'N'),
  ('P018.S.10.A.F01 (antibody, V domains shown, V regions on human Ig constant parts; also called AB27_179) VH: QSLEESGGGLVQPEGSLTLTCTASGFSFSSSDYMCWVRQAPGKGLEWIACMYTGSVEHTYYANWAEGRFTISKTSSTTVTLQMTSLTAADTATYFCARSPTGYPDYGYGGFSLWGPGTLVTVSS VL: ALVMTQTPSSVSAAVGGTVTINCQASQNIYSNLAWYQQKSGQRPKLLIHGASNLESGVPSRFKGSGSGTEFTLTISDLESADAATYYCQSAYYSGGPDMAFGGGTEVVVK', 'N');
